Assay: Systemic exposure to 4a after single oral gavage (suspension) or loose-filled capsule in monkeys (plasma LC/MS/MS, PK)
Format: in vivo, male cynomolgus monkeys
Details: male, cynomolgus, cynomolgus monkey, plasma, oral gavage suspension 30 mg/kg, 2 hr, read-out: 4a Plasma Concentration, mean (±SD)
READOUT_NAME: concentration at 2 h

INSERT INTO measurements (molecule, observed_value) VALUES
  ('CO[C@@H]1[C@@H](O)[C@@H](O)[C@H](Oc2ccc(CCNC(C)=O)c(-c3cccc(F)c3)c2)OC1(C)C [amorphous 4a]', '0.0802 µg/mL');

---

Experiment: Systemic exposure to 4a after single oral gavage (suspension) or loose-filled capsule in monkeys (plasma LC/MS/MS, PK)
Assay type: in vivo, male cynomolgus monkeys
Conditions: male, cynomolgus, cynomolgus monkey, plasma, po, 50 mg capsule, read-out: Tmax (median)
READOUT_NAME: Tmax

INSERT INTO measurements (compound, observed_value) VALUES
  ('CO[C@@H]1[C@@H](O)[C@@H](O)[C@H](Oc2ccc(CCNC(C)=O)c(-c3cccc(F)c3)c2)OC1(C)C [amorphous 4a]', '15 min');

---

Test: Systemic exposure to 4a after single oral gavage (suspension) or loose-filled capsule in monkeys (plasma LC/MS/MS, PK)
Type: in vivo, male cynomolgus monkeys
Conditions: male, cynomolgus, cynomolgus monkey, plasma, oral gavage suspension 30 mg/kg, 1 hr, read-out: 4a Plasma Concentration, mean (±SD)
READOUT_NAME: concentration at 1 h (ng/mL)

INSERT INTO assay_data (compound, display_unit, observed_value) VALUES
  ('CO[C@@H]1[C@@H](O)[C@@H](O)[C@H](Oc2ccc(CCNC(C)=O)c(-c3cccc(F)c3)c2)OC1(C)C [amorphous 4a]', 'ng/mL', 128);

---

Assay: Systemic exposure to 4a after single oral gavage (suspension) or loose-filled capsule in monkeys (plasma LC/MS/MS, PK)
Type: in vivo, male cynomolgus monkeys
Conditions: male, cynomolgus, cynomolgus monkey, plasma, oral gavage suspension 30 mg/kg, read-out: Tmax (median)
READOUT_NAME: Tmax (min)

INSERT INTO results (compound_string, display_unit, observed_value) VALUES
  ('CO[C@@H]1[C@@H](O)[C@@H](O)[C@H](Oc2ccc(CCNC(C)=O)c(-c3cccc(F)c3)c2)OC1(C)C', 'min', 30);

---

Experiment: in vivo
Conditions: male, C57BL/6, mouse, po, 1000 mg/kg
READOUT_NAME: concentration at 1 h (ng/mL)

INSERT INTO assay_data (compound, observed_value) VALUES
  ('CO[C@@H]1[C@@H](O)[C@@H](O)[C@H](Oc2ccc(CCNC(C)=O)c(-c3cccc(F)c3)c2)OC1(C)C [amorphous 4a]', 359);

---

Experiment: Systemic exposure to 4a after single oral gavage (suspension) or loose-filled capsule in monkeys (plasma LC/MS/MS, PK)
Type: in vivo, male cynomolgus monkeys
Conditions: male, cynomolgus, cynomolgus monkey, plasma, oral gavage suspension 30 mg/kg, read-out: AUC(0-t), mean (±SD)
Experimental: Dosing of Material A accounted for the presence of proline on a weight basis. Blood samples for plasma isolation were collected at […], 0.5, 1, 2, 4, 8, 12, and 24 hours post-dose from each monkey.
READOUT_NAME: AUC(0-t) (ng·h/mL)

INSERT INTO results (compound_string, readout_name, observed_value) VALUES
  ('CO[C@@H]1[C@@H](O)[C@@H](O)[C@H](Oc2ccc(CCNC(C)=O)c(-c3cccc(F)c3)c2)OC1(C)C', 'AUC(0-t)', 307);

---

Assay: Systemic exposure to 4a after single oral gavage (suspension) or loose-filled capsule in monkeys (plasma LC/MS/MS, PK)
Format: in vivo, male cynomolgus monkeys
Details: male, cynomolgus, cynomolgus monkey, plasma, oral, capsule 50 mg, 4 hr, BLQ values included as 1/2 LLOQ (0.200 ng/mL), read-out: 4a Plasma Concentration, mean (±SD)
READOUT_NAME: concentration at 4 h (ng/mL)

INSERT INTO measurements (compound_string, observed_value) VALUES
  ('CO[C@@H]1[C@@H](O)[C@@H](O)[C@H](Oc2ccc(CCNC(C)=O)c(-c3cccc(F)c3)c2)OC1(C)C', 0.2);

---

Test: Systemic exposure to 4a after single oral gavage (suspension) or loose-filled capsule in monkeys (plasma LC/MS/MS, PK)
Assay type: in vivo, male cynomolgus monkeys
Conditions: male, cynomolgus, cynomolgus monkey, plasma, oral gavage suspension 30 mg/kg, read-out: Cmax, mean (±SD)
READOUT_NAME: Cmax (ng/mL)

INSERT INTO results (compound_string, observed_value) VALUES
  ('CO[C@@H]1[C@@H](O)[C@@H](O)[C@H](Oc2ccc(CCNC(C)=O)c(-c3cccc(F)c3)c2)OC1(C)C', 160);

---

Assay: in vivo
Conditions: male, C57BL/6, mouse, po, 1000 mg/kg
READOUT_NAME: Tmax (min)

INSERT INTO assay_data (compound, observed_value) VALUES
  ('CO[C@@H]1[C@@H](O)[C@@H](O)[C@H](Oc2ccc(CCNC(C)=O)c(-c3cccc(F)c3)c2)OC1(C)C [amorphous 4a]', 15);

---

Test: in vivo
Details: male, C57BL/6, mouse, po, 1000 mg/kg
READOUT_NAME: concentration at 4 h (ng/mL)

INSERT INTO assay_data (compound_string, observed_value) VALUES
  ('CO[C@@H]1[C@@H](O)[C@@H](O)[C@H](Oc2ccc(CCNC(C)=O)c(-c3cccc(F)c3)c2)OC1(C)C', 2.28);

---

Assay: in vivo
Settings: male, C57BL/6, mouse, po, 1000 mg/kg
READOUT_NAME: Cmax (ng/mL)

INSERT INTO results (molecule, observed_value) VALUES
  ('CO[C@@H]1[C@@H](O)[C@@H](O)[C@H](Oc2ccc(CCNC(C)=O)c(-c3cccc(F)c3)c2)OC1(C)C [amorphous 4a]', 6760);

---

Assay: in vivo
Details: male, C57BL/6, mouse, po, 1000 mg/kg
READOUT_NAME: concentration at 8 h (ng/mL)

INSERT INTO measurements (compound_string, readout_name, display_unit, observed_value) VALUES
  ('CO[C@@H]1[C@@H](O)[C@@H](O)[C@H](Oc2ccc(CCNC(C)=O)c(-c3cccc(F)c3)c2)OC1(C)C', 'concentration at 8 h', 'ng/mL', 4.01);

# credit: patent US11401294B2
